src = patent US8778929B2

Target: B-Raf (V600E)-kinase (Homo sapiens, UniProt P15056, V600E)
Sequence (P15056 whole entry V600E): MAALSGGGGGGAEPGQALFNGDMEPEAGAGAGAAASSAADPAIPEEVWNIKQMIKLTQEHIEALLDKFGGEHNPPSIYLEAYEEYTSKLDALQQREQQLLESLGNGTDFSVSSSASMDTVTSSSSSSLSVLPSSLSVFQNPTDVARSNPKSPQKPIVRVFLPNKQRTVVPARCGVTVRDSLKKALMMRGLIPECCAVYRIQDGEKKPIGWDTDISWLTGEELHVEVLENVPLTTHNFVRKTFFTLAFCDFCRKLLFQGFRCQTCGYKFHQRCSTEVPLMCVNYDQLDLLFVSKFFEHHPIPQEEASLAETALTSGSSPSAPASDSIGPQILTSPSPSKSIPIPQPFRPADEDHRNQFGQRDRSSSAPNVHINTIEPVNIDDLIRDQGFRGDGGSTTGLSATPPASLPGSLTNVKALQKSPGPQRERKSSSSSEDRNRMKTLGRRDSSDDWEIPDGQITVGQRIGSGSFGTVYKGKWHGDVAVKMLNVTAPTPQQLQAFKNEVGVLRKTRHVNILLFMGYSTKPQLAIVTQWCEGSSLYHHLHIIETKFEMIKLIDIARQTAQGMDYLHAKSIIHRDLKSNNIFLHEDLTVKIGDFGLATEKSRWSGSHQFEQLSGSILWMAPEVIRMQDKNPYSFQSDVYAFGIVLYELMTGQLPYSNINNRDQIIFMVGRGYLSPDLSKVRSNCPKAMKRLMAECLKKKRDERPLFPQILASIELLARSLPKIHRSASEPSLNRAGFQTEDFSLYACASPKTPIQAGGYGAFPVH
Assay: Kinase test B-Raf (V600E)
Type: biochemical
Settings: compound concentration 2 μM; 100% = no inhibition, 0% = total inhibition; read-out: % CTL (residual activity of the enzyme relative to DMSO control)
Measure name: remaining activity at 2 µM

Example molecules with recorded remaining activity at 2 µM:
| Structure smiles | Test target | remaining activity at 2 µM |
| --- | --- | --- |
| Cc1ncc(NC(=O)c2cccc(C(C)(C)C#N)c2)cc1-n1cc(-c2cncnc2)nn1 | B-Raf (V600E)-kinase (Homo sapiens, UniProt P15056, V600E) | 2.5% |
| Cc1ncc(C(=O)Nc2cc(Br)c(C)c(C(F)(F)F)c2)cc1-n1cc(-c2cnn(C)c2C)nn1 | B-Raf (V600E)-kinase (Homo sapiens, UniProt P15056, V600E) | 1.4% |
| Cc1ncc(C(=O)Nc2cc(N(C)CCN(C)C)c(C)c(C(F)(F)F)c2)cc1-n1cc(-c2cnn(C)c2C)nn1 | B-Raf (V600E)-kinase (Homo sapiens, UniProt P15056, V600E) | 5.5% |
| CCCCN1CCN(c2cncc(-c3cn(-c4cc(C(=O)Nc5cc(C(C)(C)C)on5)cnc4C)nn3)c2)CC1 | B-Raf (V600E)-kinase (Homo sapiens, UniProt P15056, V600E) | 8% |
| Cc1ncc(C(=O)Nc2cc(C(C)(C)C)on2)cc1-n1cc(-c2cncc(N3CCN(CC(=O)N(C)C)CC3)c2)nn1 | B-Raf (V600E)-kinase (Homo sapiens, UniProt P15056, V600E) | 6.7% |

# remaining activity at 2 µM (molecule: "Cc1ncc(NC(=O)c2cc(OC(F)(F)F)cc(N3CCN(C)CC3)c2)cc1-n1cc(-c2cncc(C#N)c2)nn1" ) is 2.4%

// remaining activity at 2 µM lookup, molecule = "Cc1ncc(C(=O)Nc2cc(C(F)(F)F)ccn2)cc1-n1cc(-c2cnn(C)c2C)nn1" , result: 8%

remaining activity at 2 µM measured on "Cc1ncc(C(=O)Nc2cc(C(C)(C)C)ncn2)cc1-n1cc(-c2cncc(N3CCN(C)CC3)c2)nn1" = 1.9%

Looking up "CCN(C)Cc1cncc(-c2cn(-c3cc(C(=O)Nc4cc(C(C)(C)C)on4)cnc3C)nn2)c1" , I see its remaining activity at 2 µM listed as 3%

Field remaining activity at 2 µM (entry "Cc1ncc(C(=O)Nc2cc(CNCC(C)C)c(C)c(C(F)(F)F)c2)cc1-n1cc(-c2cnn(C)c2C)nn1" ) reads 2.2%

Note to self: remaining activity at 2 µM recorded for "COCCN1CCN(c2cncc(-c3cn(-c4cc(C(=O)Nc5cc(C(C)(C)C)on5)cnc4C)nn3)c2)CC1" was 2.6%

// remaining activity at 2 µM value for "COc1ccc(NC(=O)c2cnc(C)c(-n3cc(-c4cncnc4)nn3)c2)cc1C(F)(F)F" : 6.6%

// remaining activity at 2 µM value for "Cc1ncc(C(=O)Nc2cc(C(C)(C)C)no2)cc1-n1cc(-c2cnn(C)c2C)nn1" : 1.6%

Per the records, this molecule ( "Cc1ncc(C(=O)Nc2cc(C(C)(C)C)on2)cc1-n1cc(-c2cncc(CN3CCOCC3)c2)nn1" ) has remaining activity at 2 µM equal to 2.5%

Notebook: "COc1c(CN2CCCC2)cc(NC(=O)c2cnc(C)c(-n3cc(-c4cnn(C)c4C)nn3)c2)cc1C(F)(F)F" , remaining activity at 2 µM read as 3.1%

----------
remaining activity at 2 µM: recorded values
Target: B-Raf (V600E)-kinase (Homo sapiens, UniProt P15056, V600E)
Test: Kinase test B-Raf (V600E)
Format: biochemical
Details: compound concentration 2 μM; 100% = no inhibition, 0% = total inhibition; read-out: % CTL (residual activity of the enzyme relative to DMSO control)
Procedure: In a dilution series 10 μL of test substance solution are placed in a multiwell plate. The dilution series is selected so that generally a range of concentrations of 2 μM to 0.119 nM or 0.017 nM is covered. […] After the addition of 200 μL Enhancement Solution (Perkin Elmer, #4001-0010/#1244-105) the mixture is shaken for 10 min at RT and then measured in a Wallac Victor using the program “Delfia Time Resolved Fluorescence (Europium)”. […]
Output spec: scalar in %, unitless text.

Use the examples below as a reference point.
| Structure smiles | Test target | remaining activity at 2 µM / % |
| --- | --- | --- |
| COc1c(CNC(C)C)cc(NC(=O)c2cnc(C)c(-n3cc(-c4cnc5cnc(C)cn45)nn3)c2)cc1C(F)(F)F | B-Raf (V600E)-kinase (Homo sapiens, UniProt P15056, V600E) | 2.2 |
| Cc1ncc(C(=O)Nc2cc(CN3CCCC3)c(C)c(C(F)(F)F)c2)cc1-n1cc(-c2cnn(C)c2C)nn1 | B-Raf (V600E)-kinase (Homo sapiens, UniProt P15056, V600E) | 2.2 |
| Cc1ncc(C(=O)Nc2cc(C(C)(C)C)on2)cc1-n1cc(-c2cncc(CN(C)C)c2)nn1 | B-Raf (V600E)-kinase (Homo sapiens, UniProt P15056, V600E) | 4.1 |
| CCN1CCN(c2cc(NC(=O)c3cnc(C)c(-n4cc(-c5cnc(NC(C)=O)s5)nn4)c3)cc(C(F)(F)F)c2C)CC1 | B-Raf (V600E)-kinase (Homo sapiens, UniProt P15056, V600E) | 1.7 |
| COc1cncc(-c2cn(-c3cc(C(=O)Nc4cc(C(C)(C)C)on4)cnc3C)nn2)c1 | B-Raf (V600E)-kinase (Homo sapiens, UniProt P15056, V600E) | 3.3 |

"Cc1ncc(C(=O)Nc2cc(C(C)(C)C)on2)cc1-n1cc(-c2cncc(N3CCOCC3)c2)nn1" yielded remaining activity at 2 µM of 1.7

Sample "Cc1ncc(C(=O)Nc2cnn(C(C)C)c2)cc1-n1cc(-c2cncc(N3CCN(C(C)C)CC3)c2)nn1" ; remaining activity at 2 µM observed: 4.1

----------
Molecular target: B-Raf (V600E)-kinase (Homo sapiens, UniProt P15056, V600E)
Experiment: Kinase test B-Raf (V600E)
Assay type: biochemical
Details: compound concentration 2 μM; 100% = no inhibition, 0% = total inhibition; read-out: % CTL (residual activity of the enzyme relative to DMSO control)
Measure name: remaining activity at 2 µM (%)
Reply numerically in %, unit not repeated.

Solved cases below.
| Structure smiles | Quantity unit | remaining activity at 2 µM |
| --- | --- | --- |
| Cc1ncc(C(=O)Nc2cc(C(C)(C)C)on2)cc1-n1cc(-c2cncc(N3CCN(CCF)CC3)c2)nn1 | % | 1.7 |
| Cc1ncc(C(=O)Nc2cc(C(C)(C)C)on2)cc1-n1cc(-c2cncs2)nn1 | % | 1.6 |
| Cc1ncc(C(=O)Nc2cc(C(C)(C)C)on2)cc1-n1cc(-c2cncc(NC3CCOCC3)c2)nn1 | % | 1.4 |

Now take the following molecule into account.
Documented remaining activity at 2 µM of "COc1c(CNC(C)C)cc(NC(=O)c2cnc(C)c(-n3cc(-c4cnn(C)c4C)nn3)c2)cc1C(F)(F)F" : 3.8

----------
Target: B-Raf (V600E)-kinase (Homo sapiens, UniProt P15056, V600E)
Assay: Kinase test B-Raf (V600E)
Assay type: biochemical
Details: compound concentration 2 μM; 100% = no inhibition, 0% = total inhibition; read-out: % CTL (residual activity of the enzyme relative to DMSO control)
Description: In a dilution series 10 μL of test substance solution are placed in a multiwell plate. The dilution series is selected so that generally a range of concentrations of 2 μM to 0.119 nM or 0.017 nM is covered. […] After the addition of 200 μL Enhancement Solution (Perkin Elmer, #4001-0010/#1244-105) the mixture is shaken for 10 min at RT and then measured in a Wallac Victor using the program “Delfia Time Resolved Fluorescence (Europium)”. […]
Measure name: remaining activity at 2 µM (%)
Value expressed in %; do not type the unit.

The examples below pair each entry with its known result.
| Structure smiles | Test target | remaining activity at 2 µM [%] |
| --- | --- | --- |
| Cc1ncc(NC(=O)c2cc(C(C)(C)C)on2)cc1-n1cc(-c2cnn(C)c2C)nn1 | B-Raf (V600E)-kinase (Homo sapiens, UniProt P15056, V600E) | 4.7 |
| CCN1CC=C(c2cc(NC(=O)c3cnc(C)c(-n4cc(-c5cnn(C)c5C)nn4)c3)cc(C(F)(F)F)c2C)CC1 | B-Raf (V600E)-kinase (Homo sapiens, UniProt P15056, V600E) | 3.3 |
| Cc1cn(-c2cc(NC(=O)c3cnc(C)c(-n4cc(-c5cncnc5)nn4)c3)cc(C(F)(F)F)c2)cn1 | B-Raf (V600E)-kinase (Homo sapiens, UniProt P15056, V600E) | 3.6 |
| Cc1ncc(C(=O)Nc2cc(C(C)(C)C)on2)cc1-n1cc(-c2cncc(NCCN(C)C)c2)nn1 | B-Raf (V600E)-kinase (Homo sapiens, UniProt P15056, V600E) | 2.5 |
| Cc1ncc(NC(=O)c2cccc(OC(F)(F)F)c2)cc1-n1cc(-c2cncc(N3CCN(C(C)C)CC3)c2)nn1 | B-Raf (V600E)-kinase (Homo sapiens, UniProt P15056, V600E) | 4.3 |

Measured on B-Raf (V600E)-kinase (Homo sapiens, UniProt P15056, V600E), "Cc1ncc(NC(=O)c2cccc(C(C)(C)C#N)c2)cc1-n1cc(-c2cnn(C)c2C)nn1" has a documented remaining activity at 2 µM of 4.7

Item: "Cc1ncc(C(=O)Nc2cc(C(C)(C)C)on2)cc1-n1cc(-c2cncc(N(C)CCN(C)C)c2)nn1" | System: B-Raf (V600E)-kinase (Homo sapiens, UniProt P15056, V600E) | remaining activity at 2 µM: 2.1
